Test: in vitro
Conditions: human, CC50 hMRC-5 (cytotoxicity)
// reported CC50 at 3 days per item
property-name: CC50 at 3 days (µM)

INSERT INTO assay_data (compound, property_name, prefix_operator, reported_value) VALUES
  ('CN(C)c1ccc(/C=C/C(=O)/C=C/c2ccc(N(C)C)cc2)cc1', 'CC50 at 3 days', '=', 62.3),
  ('CC/C(=C(\c1ccccc1)c1ccc(OCCN(C)C)cc1)c1ccccc1 [Tamoxifen, tamoxifen, reference compound]', 'CC50 at 3 days', '=', 9.12),
  ('O=C(/C=C/c1ccco1)/C=C/c1ccco1', 'CC50 at 3 days', '>', 64),
  ('O=C(/C=C/c1ccccc1)/C=C/c1ccccc1', 'CC50 at 3 days', '=', 52.9),
  ('COc1ccc(C2CC(=O)CC(c3ccc(OC)cc3)S2(=O)=O)cc1 (racemic)', 'CC50 at 3 days', '≥', 64),
  ('O=C(/C=C/c1ccccc1Cl)/C=C/c1ccccc1Cl', 'CC50 at 3 days', '=', 29.4),
  ('O=C1C[C@H](c2ccccn2)S[C@@H](c2ccccn2)C1 (racemic)', 'CC50 at 3 days', '>', 64),
  ('O=C1CC(c2ccccn2)[S+]([O-])C(c2ccccn2)C1 (mixture of isomers) [3′w]', 'CC50 at 3 days', '=', 8.1),
  ('COc1ccc(/C=C/C(=O)/C=C/c2ccc(OC)cc2)cc1', 'CC50 at 3 days', '>', 64),
  ('C=CCOc1ccc(OC)cc1/C=C/C(=O)/C=C/c1cc(OC)ccc1OCC=C', 'CC50 at 3 days', '>', 16);

###

System: macrophages
// reported observed macrophage death / lysis observed at per item
property-name: observed macrophage death / lysis observed at

INSERT INTO results (compound, reported_value) VALUES
  ('N#Cc1ccc(/C=C/C(=O)/C=C/c2ccc(C#N)cc2)cc1 [1t]', '> 100 µM'),
  ('O=C(/C=C/c1ccco1)/C=C/c1ccco1 [1z]', '> 50 µM'),
  ('O=C(/C=C/c1c(Cl)cccc1Cl)/C=C/c1c(Cl)cccc1Cl [1h]', '> 6.2 µM'),
  ('CN(C)c1ccc(/C=C/C(=O)/C=C/c2ccc(N(C)C)cc2)cc1 [1u]', '200 µM'),
  ('O=C(/C=C/c1ccc(Cl)cc1)/C=C/c1ccc(Cl)cc1 [1f]', '> 50 µM'),
  ('O=C(/C=C/c1ccccc1)/C=C/c1ccccc1 [1a]', '200 µM'),
  ('O=C(/C=C/c1ccccc1Cl)/C=C/c1ccccc1Cl [1e]', '> 37.5 µM');

###

Tested on: human diploid embryonic lung fibroblast hMRC-5SV2 cells
Assay: in vitro
Conditions: human, 3 days
property-name: CC50

INSERT INTO measurements (compound, measured_on, reported_value) VALUES
  ('COc1ccc([C@H]2CC(=O)C[C@H](c3ccc(OC)cc3)S2)cc1 (relative stereo) [2d]', 'human diploid embryonic lung fibroblast hMRC-5SV2 cells', '≥ 64 µM'),
  ('COc1ccc(C2CC(=O)CC(c3ccc(OC)cc3)[S+]2[O-])cc1 (stereo not drawn) [3′d]', 'human diploid embryonic lung fibroblast hMRC-5SV2 cells', '≥ 64 µM'),
  ('O=C1C[C@H](c2ccccn2)S[C@@H](c2ccccn2)C1 (racemic) [2w]', 'human diploid embryonic lung fibroblast hMRC-5SV2 cells', '≥ 64 µM'),
  ('O=C1CC(c2ccccn2)S(=O)(=O)C(c2ccccn2)C1 (stereo not drawn) [4′w]', 'human diploid embryonic lung fibroblast hMRC-5SV2 cells', '7.5 µM'),
  ('COc1ccc(C2CC(=O)CC(c3ccc(OC)cc3)S2(=O)=O)cc1 (stereo not drawn) [4′d]', 'human diploid embryonic lung fibroblast hMRC-5SV2 cells', '≥ 64 µM'),
  ('COc1ccc(C2CC(=O)CC(c3ccc(OC)cc3)S2)cc1 (stereo not drawn) [2′d]', 'human diploid embryonic lung fibroblast hMRC-5SV2 cells', '≥ 64 µM'),
  ('COc1ccc(/C=C/C(=O)/C=C/c2ccc(OC)cc2)cc1 [1d]', 'human diploid embryonic lung fibroblast hMRC-5SV2 cells', '≥ 64 µM'),
  ('O=C1CC(c2ccccn2)SC(c2ccccn2)C1 (stereo not drawn) [2′w]', 'human diploid embryonic lung fibroblast hMRC-5SV2 cells', '≥ 64 µM'),
  ('COc1ccc(C2CC(=O)CC(c3ccc(OC)cc3)[S+]2[O-])cc1 (stereo not drawn) [3″d]', 'human diploid embryonic lung fibroblast hMRC-5SV2 cells', '32 µM');
